- test_system: PBRM1 BD4 (UniProt Q86U86 496-637)
- Sequence (Q86U86 496-637): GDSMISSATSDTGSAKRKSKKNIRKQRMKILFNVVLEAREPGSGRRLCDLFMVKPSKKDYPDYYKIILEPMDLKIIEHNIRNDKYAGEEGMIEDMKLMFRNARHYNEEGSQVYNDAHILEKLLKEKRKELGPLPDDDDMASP
- run_description: NMR titration (1H-15N HSQC); NMR: 0.1 mM 15N-BD, 50 mM K phosphate pH 7.0, 50 mM KCl, 2 mM DTT, 2 mM EDTA, 7% D2O, 25 C; EMSA: 50 mM K phosphate pH 7.0, 10 mM KCl, 2 mM DTT, 2 mM EDTA, 5% sucrose, on ice 1 h, gel at 4 C
- protocol_conditions: protein: recombinant; tags: His tag, TEV-cleaved; blunt
pKd: −log10 of the molar value.
assay_readout: pKd

1) dsDNA 11 bp (dsDNA) DNA 1: CGTAGACAGCT DNA 2: AGCTGTCTACG :: 3.30
